Cited source: the supplement of paper PMC9112550

Test system: Escherichia coli TOP10
assay_overview: shrunken log2 fold change of peptide-encoding DNA abundance (4.5 h post-induction vs induction); higher = less antimicrobial activity (less host growth inhibition)
conditions_used: time post-induction: 4.5 h; library: site-saturation at positions 5, 18, 19, 20
reported_endpoint: shrunken log2 fold change
One number for each entry.

          primary_sequence  numeric_result
0  RRIRCRPPRLPRPRPRPVKFPRP          -0.192
1  RRIRHRPPRLPRPRPRPLWAPRP           0.222
2  RRIRERPPRLPRPRPRPMNCPRP          0.0528
3  RRIRLRPPRLPRPRPRPGRCPRP           0.341
4  RRIRHRPPRLPRPRPRPKQFPRP          -0.108

Below is a list of sequences. For each, state its recorded shrunken log2 fold change.
1. RRIRRRPPRLPRPRPRPNTTPRP
2. RRIRFRPPRLPRPRPRPERHPRP
3. RRIRRRPPRLPRPRPRPPQSPRP

Output line:
1: -0.283; 2: -0.00647; 3: 0.846

====

System: Escherichia coli TOP10
assay_overview: shrunken log2 fold change of peptide-encoding DNA abundance (4.5 h post-induction vs induction); higher = less antimicrobial activity (less host growth inhibition)
conditions_used: time post-induction: 4.5 h; library: site-saturation at positions 5, 18, 19, 20
Lab note: class by shrunken log2 fold change, see low value: < -0.08; medium value: ≥ -0.08 and < 0.002; high value: ≥ 0.002

As a guide, the following entries are already answered.
          primary_sequence  category_label
0  RRIRRRPPRLPRPRPRPVCLPRP      high value
1  RRIRFRPPRLPRPRPRPDLKPRP      high value
2  RRIRIRPPRLPRPRPRPYYPPRP       low value

Input line: Class for RRIRARPPRLPRPRPRPDQQPRP ?
Output line: medium value

Input line: Same again, this time with RRIRVRPPRLPRPRPRPHCIPRP
Output line: low value

Input line: Same again, this time with RRIRVRPPRLPRPRPRPSDGPRP
Output line: medium value

Input line: Same again, this time with RRIRLRPPRLPRPRPRPGGEPRP
Output line: high value

Input line: Same again, this time with RRIRFRPPRLPRPRPRPTVIPRP
Output line: low value

Input line: Same again, this time with RRIRYRPPRLPRPRPRPRSLPRP
Output line: medium value

====

System: Escherichia coli TOP10;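 also: peptides expressed intracellularly from a pBAD plasmid library in pooled LB shake-flask culture, induced with 0.3% L-arabinose, DNA abundance read by NGS, three biological replicates, DESeq2 with apeglm shrinkage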
assay_overview: shrunken log2 fold change of peptide-encoding DNA abundance (4.5 h post-induction vs induction); higher = less antimicrobial activity (less host growth inhibition)
conditions_used: time post-induction: 4.5 h; library: site-saturation at positions 5, 18, 19, 20
Respond with yes (1) for shrunken log2 fold change values of -0.08 and above, no (0) for values below.

>>> df
          primary_sequence  category_label
0  RRIRVRPPRLPRPRPRPIWLPRP          no (0)
1  RRIRMRPPRLPRPRPRPPFNPRP         yes (1)
2  RRIRNRPPRLPRPRPRPNAHPRP          no (0)
3  RRIRKRPPRLPRPRPRPTCIPRP          no (0)
4  RRIRCRPPRLPRPRPRPTNAPRP         yes (1)

Input line: Could you verify whether the entry RRIRNRPPRLPRPRPRPRWPPRP shows shrunken log2 fold change of no less than -0.08?
Output line: yes (1)

Input line: Same again, this time with RRIRQRPPRLPRPRPRPGAIPRP
Output line: yes (1)

Input line: Same again, this time with RRIRQRPPRLPRPRPRPTRIPRP
Output line: yes (1)

Input line: Same again, this time with RRIRVRPPRLPRPRPRPIRAPRP
Output line: no (0)

Input line: Same again, this time with RRIRYRPPRLPRPRPRPFQLPRP
Output line: yes (1)

Input line: Same again, this time with RRIRSRPPRLPRPRPRPHRKPRP
Output line: yes (1)

Input line: Same again, this time with RRIRHRPPRLPRPRPRPCCYPRP
Output line: no (0)

Input line: Same again, this time with RRIRVRPPRLPRPRPRPHSGPRP
Output line: yes (1)
